Listed next: entries and their corresponding IC50.
- measuredOn: CCR2b (Homo sapiens)
- Construct: host or cells: AequoScreen CCR2b cells
- Sequence (P41597 1-360 isoform P41597-2): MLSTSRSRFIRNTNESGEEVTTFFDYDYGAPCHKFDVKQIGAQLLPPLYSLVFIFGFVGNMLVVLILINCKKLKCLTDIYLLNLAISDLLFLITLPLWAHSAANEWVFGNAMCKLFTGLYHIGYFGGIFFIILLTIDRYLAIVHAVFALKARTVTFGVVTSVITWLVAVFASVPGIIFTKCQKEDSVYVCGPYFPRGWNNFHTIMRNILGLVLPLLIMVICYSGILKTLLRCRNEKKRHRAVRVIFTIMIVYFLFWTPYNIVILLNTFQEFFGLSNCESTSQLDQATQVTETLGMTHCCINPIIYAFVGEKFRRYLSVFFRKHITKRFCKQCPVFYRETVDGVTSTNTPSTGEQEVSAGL
- experiment: AequoScreen CCR2b calcium flux assay, antagonist mode against reference agonist MCP-1
- Format: cell-based
- statedConditions: AequoScreen CCR2b (FAST-060A) cells; inhibition of reference agonist MCP-1 at its EC80; read-out: IC50 (μM) Ca^++flux

compound: CC(C)C1(C(=O)N2CCc3ncc(C(F)(F)F)cc3C2)CCN(Cc2ccc3oc(=O)n(C)c3c2)C1 (centres unmarked)
measuredOn: CCR2b (Homo sapiens)
IC50: < 0.2 µM
//
compound: COCC1(C(=O)N2CCc3ncc(C(F)(F)F)cc3C2)CCN(C(C)c2ccc3c(c2)n(C)c(=O)n3C)C1 (centres unmarked)
measuredOn: CCR2b (Homo sapiens)
IC50: < 0.2 µM
//
compound: COCC1(C(=O)N2CCc3ncc(C(F)(F)F)cc3C2)CCN(C2CCC(c3cncnc3)CC2)C1 (single isomer, unassigned) [Example 54, 55 (Isomer II)]
measuredOn: CCR2b (Homo sapiens)
IC50: 0.2 to 1 µM
//
compound: O=C(N1CCc2ncc(C(F)(F)F)cc2C1)C1(CC2CC2)CCN(Cc2ccc3sc(=O)[nH]c3c2)C1 (centres unmarked)
measuredOn: CCR2b (Homo sapiens)
IC50: 0.2 to 1 µM
//
compound: COCC1(C(=O)N2CCc3ncc(C(F)(F)F)cc3C2)CCN(Cc2ccc3oc(=O)n(C)c3c2)C1 (centres unmarked) [Example 39]
measuredOn: CCR2b (Homo sapiens)
IC50: < 0.2 µM

###

- measuredOn: CCR2b (Homo sapiens)
- Construct: host or cells: AequoScreen CCR2b cells
- experiment: AequoScreen CCR2b calcium flux assay, antagonist mode against reference agonist MCP-1
- Type: cell-based
- statedConditions: AequoScreen CCR2b (FAST-060A) cells; inhibition of reference agonist MCP-1 at its EC80; read-out: IC50 (μM) Ca^++flux
Listed next: entries and their corresponding IC50.

compound: COCC1(C(=O)N2CCc3ncc(C(F)(F)F)cc3C2)CCN(C2CCC(c3ccc(OC)nc3)CC2)C1 (single isomer, unassigned) [Example 50, 51 (Isomer II)]
measuredOn: CCR2b (Homo sapiens)
IC50: < 0.2 µM

compound: Cn1c(=O)oc2ccc(CN3CCC(CC4CC4)(C(=O)N4CCc5ncc(C(F)(F)F)cc5C4)C3)cc21 (centres unmarked)
measuredOn: CCR2b (Homo sapiens)
IC50: < 0.2 µM

compound: O=C(N1CCc2ncc(C(F)(F)F)cc2C1)C1(CC2CC2)CCN(Cc2ccc(O)c(F)c2)C1 (centres unmarked)
measuredOn: CCR2b (Homo sapiens)
IC50: > 1 µM

compound: Cn1c(=O)ccc2cc(CN3CCC(CC4CC4)(C(=O)N4CCc5ncc(C(F)(F)F)cc5C4)C3)ccc21 (centres unmarked)
measuredOn: CCR2b (Homo sapiens)
IC50: > 1 µM

compound: COCC1(C(=O)N2CCc3ncc(C(F)(F)F)cc3C2)CCN(Cc2ccc3ccc(=O)n(C)c3c2)C1 (single isomer, unassigned) [Example 26, 27 (Enantiomer II)]
measuredOn: CCR2b (Homo sapiens)
IC50: > 1 µM

compound: COCC1(C(=O)N2CCc3ncc(C(F)(F)F)cc3C2)CCN(C2CCC(O)(C3CC3)CC2)C1 (centres unmarked)
measuredOn: CCR2b (Homo sapiens)
IC50: 0.2 to 1 µM

compound: Cn1c(=O)ccc2ccc(CN3CCC(CC4CC4)(C(=O)N4CCc5ncc(C(F)(F)F)cc5C4)C3)cc21 (single isomer, unassigned) [Example 4, 5 (Enantiomer I)]
measuredOn: CCR2b (Homo sapiens)
IC50: < 0.2 µM

compound: COc1cc(CN2CCC(CC3CC3)(C(=O)N3CCc4ncc(C(F)(F)F)cc4C3)C2)ccc1O (centres unmarked)
measuredOn: CCR2b (Homo sapiens)
IC50: 0.2 to 1 µM

compound: COCC1(C(=O)N2CCc3ncc(C(F)(F)F)cc3C2)CCN(C(C)c2ccc3c(c2)N(C)C(=O)CO3)C1 (centres unmarked)
measuredOn: CCR2b (Homo sapiens)
IC50: < 0.2 µM

compound: COCC1(C(=O)N2CCc3ncc(C(F)(F)F)cc3C2)CCN(C2CCC(c3ccc(OC)nc3)CC2)C1 (single isomer, unassigned) [Example 50, 51 (Isomer I)]
measuredOn: CCR2b (Homo sapiens)
IC50: < 0.2 µM

compound: COCC1(C(=O)N2CCc3ncc(C(F)(F)F)cc3C2)CCN(C(C)c2ccc3oc(=O)n(C)c3c2)C1 (centres unmarked)
measuredOn: CCR2b (Homo sapiens)
IC50: < 0.2 µM

compound: O=C(N1CCc2ncc(C(F)(F)F)cc2C1)C1(CC2CC2)CCN(Cc2ccc3[nH]ncc3c2)C1 (centres unmarked)
measuredOn: CCR2b (Homo sapiens)
IC50: > 1 µM

compound: COCC1(C(=O)N2CCc3ncc(C(F)(F)F)cc3C2)CCN(Cc2ccc3c(c2)N(C)C(=O)CO3)C1 (centres unmarked)
measuredOn: CCR2b (Homo sapiens)
IC50: < 0.2 µM

compound: COCC1(C(=O)N2CCc3ncc(C(F)(F)F)cc3C2)CCN(C2CCC(c3ccc(F)cc3)CC2)C1 (single isomer, unassigned) [Example 56, 57 (Isomer I)]
measuredOn: CCR2b (Homo sapiens)
IC50: < 0.2 µM

compound: COCC1(C(=O)N2CCc3ncc(C(F)(F)F)cc3C2)CCN(C2CCC(O)(c3ccc(OC)nc3)CC2)C1 (single isomer, unassigned) [Example 30, 31 (Isomer I)]
measuredOn: CCR2b (Homo sapiens)
IC50: < 0.2 µM

compound: CC(c1ccc2c(c1)n(C)c(=O)n2C)N1CCC(CC2CC2)(C(=O)N2CCc3ncc(C(F)(F)F)cc3C2)C1 (centres unmarked)
measuredOn: CCR2b (Homo sapiens)
IC50: > 1 µM

compound: CC1(C)CC(CN2CCC(CC3CC3)(C(=O)N3CCc4ncc(C(F)(F)F)cc4C3)C2)CCO1 (centres unmarked)
measuredOn: CCR2b (Homo sapiens)
IC50: 0.2 to 1 µM
